The origin of these recorded values is paper PMC7177633.

# uptake into MDA-MB-231 cells per entry
System: MDA-MB-231 cells
Assay: Cellular uptake of metformin sulfonamides in MDA-MB-231 cells (HPLC)
Type: in vitro ADME, human
Conditions: 800 μmol/L, 10 min incubation, 37 °C
Respond numerically; units are nmol/min/mg protein and should not be typed.

Below, each entry is followed by its recorded uptake into MDA-MB-231 cells result.
> print(dat)
                          structurestring      targetentity                  quantitykind          unitssymbol  measurednumber
1  CN(C)C(=N)N=C(N)NS(=O)(=O)c1ccc(Br)cc1  MDA-MB-231 cells  uptake into MDA-MB-231 cells  nmol/min/mg protein            0.75
2    CN(C)C(=N)N=C(N)NS(=O)(=O)c1ccccc1Br  MDA-MB-231 cells  uptake into MDA-MB-231 cells  nmol/min/mg protein             1.3
3  CN(C)C(=N)N=C(N)NS(=O)(=O)c1ccc(Cl)cc1  MDA-MB-231 cells  uptake into MDA-MB-231 cells  nmol/min/mg protein            0.42

Give reported uptake into MDA-MB-231 cells value for `CN(C)C(=N)N=C(N)NS(=O)(=O)c1ccc(F)cc1`
0.021

====

# IC50 per record follows
Test system: MCF-7 cells
Assay: Cell viability WST-1 assay, MCF-7
Format: cell-based
Details: Homo sapiens, MCF7; WST-1, 24 h, mean ± SD (n = 6–8); read-out: IC50 inhibition of MCF-7 cells' viability
Protocol: The viability of MCF-7 and MDA-MB-231 cells was determined using a colorimetric WST-1 assay (Takara, Takara Bio Europe, Saint-Germain-en-Laye, France). […] The plates were incubated at the standard condition for 1.5 h, and the absorbance was read at 450 nm using a microplate reader (iMARK, Bio-Rad, Bio-Rad Laboratories Inc., Hercules, CA, USA). […] The results of samples treated with the test compounds were expressed as a percentage of the control samples. […]
Kindly write the number and append the unit.

> print(dat)
                          structurestring   result
1  CN(C)C(=N)N=C(N)NS(=O)(=O)c1cccc(Cl)c1   533 µM
2     CN(C)C(=N)N=C(N)NS(=O)(=O)c1ccccc1F  55.1 µM
3  CN(C)C(=N)N=C(N)NS(=O)(=O)c1ccc(Br)cc1  1140 µM

Look up IC50 of `CN(C)C(=N)N=C(N)NS(=O)(=O)c1ccccc1Br` and report it.
430 µM

====

Tested on: MDA-MB-231 cells
Experiment: Cellular uptake of metformin sulfonamides in MDA-MB-231 cells (HPLC)
Format: in vitro ADME, human
Conditions: fold lower in MDA-MB-231 than in MCF-7
Experimental: The uptake of metformin sulfonamides (1–9) in MCF-7 and MDA-MB-231 cells was studied by incubation of the cells with 10−3000 μmol/L of compounds in 250 μL of prewarmed HBSS buffer at 37 °C for 10 min. Subsequently, the cells were then washed three times with 500 μL of ice-cold HBSS and lysed with 250 μL of 0.1-M NaOH. The samples were collected, centrifuged (5 min, 1400 rpm) and the supernatants were analyzed by the HPLC method. […]
quantityKind: transport efficacy (Vmax/Km) in MCF-7 relative to MDA-MB-231

> print(dat)
                          structurestring      targetentity        result
1  CN(C)C(=N)N=C(N)NS(=O)(=O)c1ccc(Cl)cc1  MDA-MB-231 cells  2.4–3.2 fold

Here is another molecule to look at.
Please list transport efficacy (Vmax/Km) in MCF-7 relative to MDA-MB-231 recorded for the molecule `CN(C)C(=N)N=C(N)NS(=O)(=O)c1ccccc1F`
10 fold
